B1: ZNF449 (parent)
chain: QLTGHQRIHSGEEPHKCPECGKRF

# Variants of: B1
# PROTOCOL NOTES: protein stability index of a GFP-peptide fusion (GPS, HEK-293T) (PSI 1-6); higher = more stable;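 note: lentivirally expressed fusions sorted by FACS into six bins by GFP to DsRed ratio, PSI derived from sequencing read proportions per bin multiplied by bin number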
# CONDITION SUMMARY: c terminus: a fixed tail appended
Please provide measured protein stability index for the entries that follow.
Numbers only.

Some variants with known protein stability index results, for comparison:
>>> assay_value("C20N")
4.49
>>> assay_value("I8G")
4.59
>>> assay_value("K22H")
4.3
>>> assay_value("E12R")
4.01
>>> assay_value("H9A")
3.57
>>> assay_value("P18L")
3.92

Could you tell me protein stability index for each of these variants? They are listed below.
1. F24Y
2. G11S
3. I8E
4. E13L
5. C20S
6. K22M

A)
[4.58, 4.17, 4.5, 2.85, 4.37, 4.43]

Could you tell me protein stability index for each of these variants? They are listed below.
1. I8R
2. K22E
3. Q1S
4. L2G

A)
3.75
4.62
4.72
4.77

Could you tell me protein stability index for each of these variants? They are listed below.
1. T3Y
2. R23V
3. P18R
4. K16Q

A)
1: 3.54; 2: 4.72; 3: 4.4; 4: 4.3
